// provenance: paper PMC10716038

- targetEntity: T1, THD1 I399A (UniProt P26039 1-405, I399A)
- T1 construct: talin-1 (TLN1) head domain, residues 1-405, I399A; source: E. coli (DE3) Rosetta 2, purified (IMAC, SEC); not shown: His10-SUMO, N-terminal, cleaved
- T1 sequence (P26039 1-405 I399A): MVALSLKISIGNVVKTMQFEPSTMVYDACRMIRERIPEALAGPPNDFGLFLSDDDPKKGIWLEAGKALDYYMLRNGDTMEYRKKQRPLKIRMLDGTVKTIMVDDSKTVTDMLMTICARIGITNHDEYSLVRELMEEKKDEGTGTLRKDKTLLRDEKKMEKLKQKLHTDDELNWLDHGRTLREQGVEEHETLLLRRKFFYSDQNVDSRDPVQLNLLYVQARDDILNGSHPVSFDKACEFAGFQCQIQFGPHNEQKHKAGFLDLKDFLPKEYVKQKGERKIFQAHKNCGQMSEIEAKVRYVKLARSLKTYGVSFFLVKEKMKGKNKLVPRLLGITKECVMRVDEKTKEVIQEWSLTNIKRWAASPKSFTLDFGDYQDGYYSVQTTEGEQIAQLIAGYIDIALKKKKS
- assayMethodText: MST; apparent; THD1 or THD1 mutants titrated to 488–β3-CT in the presence of 30-40 µM KIND2; MST buffer
- appliedConditions: both partners purified
No end group written: not given here.
endpointLabel: Kd

>>> measured("{ATTO 488}-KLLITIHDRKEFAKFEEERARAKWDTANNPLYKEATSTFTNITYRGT (peptide, UniProt O54890 741-787, looked up, integrin β3 cytoplasmic tail (β3-CT); source: synthetic peptide (MPIB Core Facility)) [ATTO 488-labeled integrin β3 cytoplasmic tail (488–β3-CT)]")
"91 µM"
